Experiment: qHTS assay for small molecule activators of the p53 signaling pathway (AID 651743); note: % of control where 0% means no effect
Conditions: HCT-116 p53RE-bla, beta-lactamase FRET ratio, 16 h; stronger effect = higher value
Records with an inconclusive call do not appear. The source made the active and inactive calls. Calls come from the whole dose curve; as a rule, active = well fitted activation curve with a large enough effect in the signal ratio (not every such curve was filed as active); inconclusive = small, poorly fitted or top-dose-only effect, or a change in a side signal; inactive = flat fitted curve, though single readings scatter; the % refers to the signal ratio.
measured-parameter: activation

Worked cases, activation given:
molecule: O=C(O)COc1ccc(Cl)cc1Cl
activation: -2.21% (inactive) [middle of 4 runs]

molecule: O=S1OCC2C(CO1)C1(Cl)C(Cl)=C(Cl)C2(Cl)C1(Cl)Cl (stereo not drawn)
activation: -4.01% (inactive)

molecule: CC(C)N1C(=O)c2ccccc2NS1(=O)=O
activation: 2.08% (inactive)

molecule: COC1=CC(=O)O[C@@H](/C=C/c2ccc3c(c2)OCO3)C1
activation: -5.07% (inactive)

molecule: CC(C)OC(=O)Nc1cccc(Cl)c1
activation: 1.93% (inactive)

molecule: O=C(Cl)C(Cl)(Cl)Cl
activation: -0.85% (inactive)

Would you mind giving activation for every molecule in the list below?
1. Nc1ccccc1Cl
2. CCCCCCCC(=O)Cl

-1.73% (inactive)
-1.82% (inactive)

Would you mind giving activation for every molecule in the list below?
1. C=CC(=C)C
2. O=C(O)C1C2CCC(O2)C1C(=O)O (stereo not drawn)
3. Nc1ccc(Br)cc1
4. C=CCc1ccc2c(c1)OCO2
5. C=CC1CC=CCC1 (stereo not drawn)

["-2.92% (inactive)", "4.04% (inactive)", "-1.91% (inactive)", "-1.35% (inactive)", "-3.44% (inactive)"]

====

Test system: CP237
Assay: qHTS profiling for inhibitors of Plasmodium falciparum proliferation (AID 504749); note: nearly all actives have a fitted effect of over 60% in size
Details: P. falciparum in erythrocytes, SYBR Green DNA, 72 h; series mostly up to 28.7 µM
Results filed as inconclusive are left out. Active and inactive are the calls of the source. The call rests on the fitted dose curve; in most records, active means well fitted inhibition curve with a large enough effect; inconclusive means small, poorly fitted or top-dose-only effect; inactive means flat fitted curve, though single readings scatter.
Choose the fitting class; nothing outside active, inactive is accepted.

Example entries and their recorded answers appear below.
compound: CNC[C@H](O)c1ccc(O)cc1
study-target: CP237
label-class: inactive
//
compound: C[N+]1([O-])[C@@H]2CC(OC(=O)[C@@H](CO)c3ccccc3)C[C@@H]1[C@H]1O[C@H]12 (stereo not given in full)
study-target: CP237
label-class: inactive
//
compound: NCC[C@H](O)C(=O)N[C@H]1C[C@@H](N)[C@@H](O[C@H]2O[C@@H](CN)[C@@H](O)[C@@H](O)[C@@H]2N)[C@@H](O[C@H]2O[C@@H](CO)[C@@H](O)[C@@H]2O)[C@@H]1O
study-target: CP237
label-class: inactive
//
compound: CC(C)N(CC[C@@](C(N)=O)(c1ccccc1)c1ccccn1)C(C)C
study-target: CP237
label-class: inactive

What did the test return for O=[As]O[As]=O (stereo not given) ?
active

====

Assay: qHTS Assay for Lipid Storage Modulators (AID 1519)
Conditions: Drosophila S3 cells, BODIPY lipid droplet/cell ratio, laser cytometry; measured here: lipid channel max response; cells loaded with oleic acid
Records with an inconclusive call do not appear.
Would you mind telling me the reported max response of each entry?
One number for each entry, in %.

Worked cases, max response given:
molecule: O=C(Oc1ccccc1)N1CCC2(CC1)CCN(C(c1ccccc1)c1ccccc1)CC2
measured-parameter: max response
measure-unit: %
experimental-value: 13.3

molecule: CCC(N)C(O)c1ccc(O)c(O)c1 (stereo unspecified)
measured-parameter: max response
measure-unit: %
experimental-value: 16.7

molecule: CC(=O)O[C@H]1CC[C@@]2(C)C(=CC[C@@H]3[C@H]2CC[C@]2(C)C(=O)CC[C@H]32)C1
measured-parameter: max response
measure-unit: %
experimental-value: -12.6

molecule: C[C@H]1C(=O)O[C@@H]2CCN3CC=C(COC(=O)[C@@](C)(O)[C@@]1(C)O)[C@H]23
measured-parameter: max response
measure-unit: %
experimental-value: 3.19

molecule: CCCN1CCc2cccc3c2C1Cc1ccc(O)c(O)c1-3 (stereo unspecified)
measured-parameter: max response
measure-unit: %
experimental-value: -25.9

Query molecule follows.
CNC(=O)Oc1ccccc1OC(C)C has a reported max response of 18.3
